Below are compounds with their IC50 as measured on Cyclin-dependent kinase 1 (Homo sapiens).
Sequence (P06493 whole entry): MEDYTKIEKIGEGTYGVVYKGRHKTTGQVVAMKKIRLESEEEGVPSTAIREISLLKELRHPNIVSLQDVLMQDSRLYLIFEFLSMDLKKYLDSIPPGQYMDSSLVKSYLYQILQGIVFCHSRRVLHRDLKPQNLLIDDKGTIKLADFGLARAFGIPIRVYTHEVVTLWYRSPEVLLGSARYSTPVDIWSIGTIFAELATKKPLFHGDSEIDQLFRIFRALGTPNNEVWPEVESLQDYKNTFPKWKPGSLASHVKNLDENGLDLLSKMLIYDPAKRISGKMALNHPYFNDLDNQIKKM

A selection of reference data follows.
Nc1nc(Nc2cccc(Br)c2)nc(OCC2CCCCC2)c1N=O = 800 nM
CSc1ccc(Nc2nc(N)c(N=O)c(OCC3CCCCC3)n2)cc1 = 220 nM
Nc1cc(OCC2CCCCC2)nc(Nc2ccc(S(N)(=O)=O)cc2)n1 = 5300 nM
Nc1nc(Nc2ccc(S(N)(=O)=O)cc2)nc(OCC2CCCCC2)c1N=O = 5 nM
NC(=O)c1ccc(Nc2nc(N)cc(OCC3CCCCC3)n2)cc1 = 63000 nM

Then there is this compound:
Give IC50 only, for COc1ccc(Nc2nc(N)c(N=O)c(OCC3CCCCC3)n2)cc1 , using Cyclin-dependent kinase 1 (Homo sapiens) data.
230 nM

Data provenance: ChEMBL document CHEMBL1136212
